- Test system: Klebsiella pneumoniae
- Test method notes: In vitro antibacterial activity, agar dilution method (MIC)
- Assay type: cell-based
- Measurement setup: Klebsiella pneumoniae, 18 h, Klebsiella pneumoniae 18-8 (ESBLs-producing); agar dilution, 35°C, 18 hours; read-out: MIC
Value kind: MIC (µg/mL)
Give bare numbers, in µg/mL.

Respectfully, I request MIC for each entry included below.
1. C[C@H]1COc2c(N3CCN(C)CC3)c(F)cc3c(=O)c(C(=O)O)cn1c23
2. CC(C)(N)[C@H](NC(=O)c1ccc(C#CC#C[C@@H]2C[C@H]2CO)cc1)C(=O)NO
3. COC[C@@H]1C[C@H]1C#CC#Cc1ccc(C(=O)N[C@H](C(=O)NO)C(C)(C)N)cc1
4. COC[C@@H]1C[C@@H]1C#CC#Cc1ccc(C(=O)N[C@H](C(=O)NO)C(C)(C)N)cc1

A)
1
1
0.06
0.5

---

- Target or test system: recombinant Escherichia coli LpxC enzyme (rLpxC) (Escherichia coli)
- Sequence (P0A725 1-305): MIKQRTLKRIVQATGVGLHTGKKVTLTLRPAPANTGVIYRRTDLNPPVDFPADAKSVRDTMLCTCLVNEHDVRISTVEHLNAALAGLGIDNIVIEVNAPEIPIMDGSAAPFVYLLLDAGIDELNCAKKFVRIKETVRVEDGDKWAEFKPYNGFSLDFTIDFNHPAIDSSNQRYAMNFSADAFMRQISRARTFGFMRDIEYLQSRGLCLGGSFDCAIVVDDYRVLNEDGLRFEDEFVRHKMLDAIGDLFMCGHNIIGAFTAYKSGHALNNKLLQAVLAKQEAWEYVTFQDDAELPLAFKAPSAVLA
- Test method notes: Inhibition of recombinant Escherichia coli LpxC enzyme activity (LC-MS)
- Measurement setup: 37°C, 30 minutes reaction, substrate UDP-3-O (R-hydroxytetradecanoyl)-N-acetylglucosamine
- Experimental: Preparation of recombinant Escherichia coli LpxC enzyme (rLpxC). 2 µL of recombinant Escherichia coli LpxC enzyme (6.29 mg/mL) was added to 18 µL of distilled water. After thorough mixing, 2 µL of this mixture was added to 1042.4 µL of distilled water and mixed well to prepare a 36 nM working solution. The substrate was UDP-3-O (R-hydroxytetradecanoyl)-N-acetylglucosamine, with UDP-α-D-N-Acetylglucosamine Disodium Salt as the internal standard. […]
Value kind: pIC50
Answers are plain numbers, as −log10 of the molar value.

[
  {
    "Compound": "COC[C@@H]1C[C@@H]1C#CC#Cc1ccc(C(=O)N[C@H](C(=O)NO)C(C)(C)N)cc1 [Id]",
    "pIC50": 9.05
  },
  {
    "Compound": "COCC1CC1C#CC#Cc1ccc(C(=O)NC(C(=O)NO)C(C)(C)N)cc1 (mixture of isomers) [Ia/Ib racemate]",
    "pIC50": 8.99
  },
  {
    "Compound": "CC(C)(N)[C@H](NC(=O)c1ccc(C#CC#C[C@@H]2C[C@H]2CO)cc1)C(=O)NO [ACHN-975]",
    "pIC50": 8.97
  }
]

So for COC[C@H]1C[C@H]1C#CC#Cc1ccc(C(=O)N[C@H](C(=O)NO)C(C)(C)N)cc1 [Ic] , the logged pIC50 turned out to be 9.04

---

- System: ICR strain mice
- Test method notes: Acute toxicity in mice, single tail vein injection
- Assay type: in vivo
- Measurement setup: dose 150 mg/kg, one week
Value kind: Number of deaths
Give me the value, and tack the unit on after it.

[
  {
    "Compound": "COCC1CC1C#CC#Cc1ccc(C(=O)NC(C(=O)NO)C(C)(C)N)cc1 (mixture of isomers) [Ia/Ib racemate]",
    "Number of deaths": "3 individuals"
  },
  {
    "Compound": "CO[C@H]1CCC[C@@H]1C#CC#Cc1ccc(C(=O)N[C@H](C(=O)NO)C(C)(C)N)cc1",
    "Number of deaths": "0 individuals"
  }
]

Respectfully, I request Number of deaths for each entry included below.
1. COC[C@H]1C[C@H]1C#CC#Cc1ccc(C(=O)N[C@H](C(=O)NO)C(C)(C)N)cc1
2. COC[C@@H]1C[C@H]1C#CC#Cc1ccc(C(=O)N[C@H](C(=O)NO)C(C)(C)N)cc1
3. COC[C@@H]1C[C@@H]1C#CC#Cc1ccc(C(=O)N[C@H](C(=O)NO)C(C)(C)N)cc1

A)
1 individuals
0 individuals
2 individuals

Respectfully, I request Number of deaths for each entry included below.
1. CC(C)(N)[C@H](NC(=O)c1ccc(C#CC#C[C@@H]2C[C@H]2CO)cc1)C(=O)NO
2. COC[C@H]1C[C@@H]1C#CC#Cc1ccc(C(=O)N[C@H](C(=O)NO)C(C)(C)N)cc1

A)
1: 3 individuals; 2: 0 individuals

The origin of these recorded values is patent EP4745118A1.
